# Tested on: epimastigote forms of Trypanosoma cruzi (Y strain)
# PROTOCOL NOTES: Antiproliferative assay (XTT), epimastigote forms, 96 h
# Assay type: cell-based
# RUN CONDITIONS: macrophages vs epimastigote
OBSERVABLE: SIT-M, selectivity index (Macrophages CC50/T. cruzi IC50)

{"COMPOUND": "COc1ccc(NCc2c(C(=O)NN)noc2-c2ccccc2)cc1 [3 bc]", "EXPERIMENTAL VALUE": 12.38}
{"COMPOUND": "CCOC(=O)c1noc(-c2ccc(Cl)cc2)c1CNc1ccc(Cl)cc1 [2 db]", "EXPERIMENTAL VALUE": 3.92}
{"COMPOUND": "O=C(N/N=C/c1ccc(-c2cccs2)s1)c1noc(-c2ccc(Cl)cc2)c1CNc1ccc(Cl)cc1 [6 db]", "EXPERIMENTAL VALUE": 8.94}
{"COMPOUND": "O=C(N/N=C/c1ccccc1)c1noc(-c2ccc(F)cc2)c1CNc1ccccc1 [4 ca]", "EXPERIMENTAL VALUE": 5.29}
{"COMPOUND": "O=C(N/N=C/c1ccccn1)c1noc(-c2ccc(F)cc2)c1CNc1ccc(Cl)cc1 [5 cb]", "EXPERIMENTAL VALUE": 2.84}
{"COMPOUND": "O=C(N/N=C/c1ccccn1)c1noc(-c2ccc(Cl)cc2)c1CNc1ccc(Cl)cc1 [5 db]", "EXPERIMENTAL VALUE": 2.04}
{"COMPOUND": "O=C(N/N=C/c1ccc(-c2cccs2)s1)c1noc(-c2ccccc2)c1CNc1ccccc1 [6 ba]", "EXPERIMENTAL VALUE": 3.75}
{"COMPOUND": "O=C(N/N=C/c1ccccc1)c1noc(-c2ccccc2)c1CNc1ccc(Cl)cc1 [4 bb]", "EXPERIMENTAL VALUE": 11.30}
{"COMPOUND": "O=C(N/N=C/c1ccc(-c2cccs2)s1)c1noc(-c2ccc([N+](=O)[O-])cc2)c1CNc1ccc(Cl)cc1 [6 ab]", "EXPERIMENTAL VALUE": 6.91}
{"COMPOUND": "O=C(N/N=C/c1ccccn1)c1noc(-c2ccccc2)c1CNc1ccc(Cl)cc1 [5 bb]", "EXPERIMENTAL VALUE": 11.18}
{"COMPOUND": "COc1ccc(NCc2c(C(=O)N/N=C/c3ccccn3)noc2-c2ccc(Cl)cc2)cc1 [5 dc]", "EXPERIMENTAL VALUE": 5.51}
{"COMPOUND": "O=C(N/N=C/c1ccccn1)c1noc(-c2ccc(Cl)cc2)c1CNc1ccccc1 [5 da]", "EXPERIMENTAL VALUE": 3.98}
{"COMPOUND": "O=C(N/N=C/c1ccccn1)c1noc(-c2ccc([N+](=O)[O-])cc2)c1CNc1ccc(Cl)cc1 [5 ab]", "EXPERIMENTAL VALUE": 3.81}
{"COMPOUND": "CCOC(=O)c1noc(-c2ccc(Cl)cc2)c1CNc1ccccc1 [2 da]", "EXPERIMENTAL VALUE": 4.70}
{"COMPOUND": "NNC(=O)c1noc(-c2ccc(Cl)cc2)c1CNc1ccc(Cl)cc1 [3 db]", "EXPERIMENTAL VALUE": 6.03}
{"COMPOUND": "COc1ccc(NCc2c(C(=O)N/N=C/c3ccccc3)noc2-c2ccccc2)cc1 [4 bc]", "EXPERIMENTAL VALUE": 6.61}
{"COMPOUND": "O=C(N/N=C/c1ccccc1)c1noc(-c2ccc(Cl)cc2)c1CNc1ccc(Cl)cc1 [4 db]", "EXPERIMENTAL VALUE": 5.56}
{"COMPOUND": "O=C(N/N=C/c1ccccn1)c1noc(-c2ccc([N+](=O)[O-])cc2)c1CNc1ccccc1 [5 aa]", "EXPERIMENTAL VALUE": 3.16}
{"COMPOUND": "O=C(N/N=C/c1ccc(-c2cccs2)s1)c1noc(-c2ccc(F)cc2)c1CNc1ccc(Cl)cc1 [6 cb]", "EXPERIMENTAL VALUE": 10.3}
{"COMPOUND": "O=C(N/N=C/c1ccccc1)c1noc(-c2ccc(F)cc2)c1CNc1ccc(Cl)cc1 [4 cb]", "EXPERIMENTAL VALUE": 3.69}
{"COMPOUND": "O=C(N/N=C/c1ccccc1)c1noc(-c2ccc([N+](=O)[O-])cc2)c1CNc1ccc(Cl)cc1 [4 ab]", "EXPERIMENTAL VALUE": 1.96}
{"COMPOUND": "NNC(=O)c1noc(-c2ccccc2)c1CNc1ccc(Cl)cc1 [3 bb]", "EXPERIMENTAL VALUE": 5.93}
{"COMPOUND": "O=C(N/N=C/c1ccccn1)c1noc(-c2ccccc2)c1CNc1ccccc1 [5 ba]", "EXPERIMENTAL VALUE": 9.02}
{"COMPOUND": "O=C(N/N=C/c1ccc(-c2cccs2)s1)c1noc(-c2ccc(Cl)cc2)c1CNc1ccccc1 [6 da]", "EXPERIMENTAL VALUE": 11.47}
{"COMPOUND": "O=C(N/N=C/c1ccccn1)c1noc(-c2ccc(F)cc2)c1CNc1ccccc1 [5 ca]", "EXPERIMENTAL VALUE": 5.38}
{"COMPOUND": "COc1ccc(NCc2c(C(=O)N/N=C/c3ccccn3)noc2-c2ccc(F)cc2)cc1 [5 cc]", "EXPERIMENTAL VALUE": 12.96}
{"COMPOUND": "COc1ccc(NCc2c(C(=O)NN)noc2-c2ccc(Cl)cc2)cc1 [3 dc]", "EXPERIMENTAL VALUE": 4.24}
{"COMPOUND": "O=C(N/N=C/c1ccc(-c2cccs2)s1)c1noc(-c2ccccc2)c1CNc1ccc(Cl)cc1 [6 bb]", "EXPERIMENTAL VALUE": 9.90}
{"COMPOUND": "O=C(N/N=C/c1ccc(-c2cccs2)s1)c1noc(-c2ccc(F)cc2)c1CNc1ccccc1 [6 ca]", "EXPERIMENTAL VALUE": 7.22}
{"COMPOUND": "COc1ccc(NCc2c(C(=O)NN)noc2-c2ccc(F)cc2)cc1 [3 cc]", "EXPERIMENTAL VALUE": 2.29}
{"COMPOUND": "COc1ccc(NCc2c(C(=O)N/N=C/c3ccccc3)noc2-c2ccc(F)cc2)cc1 [4 cc]", "EXPERIMENTAL VALUE": 3.81}
{"COMPOUND": "O=C(N/N=C/c1ccc(-c2cccs2)s1)c1noc(-c2ccc([N+](=O)[O-])cc2)c1CNc1ccccc1 [6 aa]", "EXPERIMENTAL VALUE": 5.46}
{"COMPOUND": "NNC(=O)c1noc(-c2ccc([N+](=O)[O-])cc2)c1CNc1ccc(Cl)cc1 [3 ab]", "EXPERIMENTAL VALUE": 7.58}
{"COMPOUND": "O=C(N/N=C/c1ccccc1)c1noc(-c2ccccc2)c1CNc1ccccc1 [4 ba]", "EXPERIMENTAL VALUE": 5.54}
{"COMPOUND": "COc1ccc(NCc2c(C(=O)NN)noc2-c2ccc([N+](=O)[O-])cc2)cc1 [3 ac]", "EXPERIMENTAL VALUE": 4.86}
{"COMPOUND": "COc1ccc(NCc2c(C(=O)N/N=C/c3ccccn3)noc2-c2ccccc2)cc1 [5 bc]", "EXPERIMENTAL VALUE": 9.11}

====

Entries and their melting point

{"STRUCTURE SMILES": "COc1ccc(NCc2c(C(=O)N/N=C/c3ccccc3)noc2-c2ccc(F)cc2)cc1", "melting point": "181.7 to 185.5 °C"}
{"STRUCTURE SMILES": "COc1ccc(NCc2c(C(=O)N/N=C/c3ccc(-c4cccs4)s3)noc2-c2ccccc2)cc1", "melting point": "165.5 to 167 °C"}
{"STRUCTURE SMILES": "O=C(N/N=C/c1ccc(-c2cccs2)s1)c1noc(-c2ccccc2)c1CNc1ccc(Cl)cc1", "melting point": "211.1 to 213.9 °C"}
{"STRUCTURE SMILES": "NNC(=O)c1noc(-c2ccccc2)c1CNc1ccccc1", "melting point": "151.3 to 152.4 °C"}
{"STRUCTURE SMILES": "COc1ccc(NCc2c(C(=O)N/N=C/c3ccc(-c4cccs4)s3)noc2-c2ccc(Cl)cc2)cc1", "melting point": "199.9 to 202.7 °C"}
{"STRUCTURE SMILES": "COc1ccc(NCc2c(C(=O)NN)noc2-c2ccc(F)cc2)cc1", "melting point": "171.1 to 173.6 °C"}
{"STRUCTURE SMILES": "NNC(=O)c1noc(-c2ccc(Cl)cc2)c1CNc1ccccc1", "melting point": "202.8 to 205.6 °C"}
{"STRUCTURE SMILES": "O=C(N/N=C/c1ccccc1)c1noc(-c2ccc(F)cc2)c1CNc1ccccc1", "melting point": "157.7 to 159.6 °C"}
{"STRUCTURE SMILES": "O=C(N/N=C/c1ccc(-c2cccs2)s1)c1noc(-c2ccc([N+](=O)[O-])cc2)c1CNc1ccccc1", "melting point": "232.5 to 233.9 °C"}
{"STRUCTURE SMILES": "O=C(N/N=C/c1ccccc1)c1noc(-c2ccc(F)cc2)c1CNc1ccc(Cl)cc1", "melting point": "167.9 to 170.5 °C"}
{"STRUCTURE SMILES": "NNC(=O)c1noc(-c2ccc([N+](=O)[O-])cc2)c1CNc1ccc(Cl)cc1", "melting point": "174.1 to 176.8 °C"}
{"STRUCTURE SMILES": "COc1ccc(NCc2c(C(=O)N/N=C/c3ccccc3)noc2-c2ccc(Cl)cc2)cc1", "melting point": "176.3 to 177.1 °C"}
{"STRUCTURE SMILES": "O=C(N/N=C/c1ccccn1)c1noc(-c2ccc(F)cc2)c1CNc1ccc(Cl)cc1", "melting point": "202.4 to 203.9 °C"}
{"STRUCTURE SMILES": "COc1ccc(NCc2c(C(=O)N/N=C/c3ccccc3)noc2-c2ccccc2)cc1", "melting point": "197.6 to 199.6 °C"}
{"STRUCTURE SMILES": "O=C(N/N=C/c1ccccn1)c1noc(-c2ccccc2)c1CNc1ccccc1", "melting point": "194.8 to 195.6 °C"}
{"STRUCTURE SMILES": "O=C(N/N=C/c1ccccc1)c1noc(-c2ccc([N+](=O)[O-])cc2)c1CNc1ccccc1", "melting point": "92.6 to 94.4 °C"}
{"STRUCTURE SMILES": "O=C(N/N=C/c1ccccn1)c1noc(-c2ccc([N+](=O)[O-])cc2)c1CNc1ccccc1", "melting point": "223.8 to 225.5 °C"}
{"STRUCTURE SMILES": "COc1ccc(NCc2c(C(=O)NN)noc2-c2ccccc2)cc1", "melting point": "132.2 to 135.4 °C"}
